The entries below come with measured pKd values attached.
- Tgt: PAX6 paired domain WT (human, UniProt P26367 4-136)
- Sequence (P26367 4-136): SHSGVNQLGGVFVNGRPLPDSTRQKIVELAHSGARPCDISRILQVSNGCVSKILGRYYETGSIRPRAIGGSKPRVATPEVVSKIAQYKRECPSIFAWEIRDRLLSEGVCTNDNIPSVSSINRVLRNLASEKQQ
- Test: ITC; ITC (iTC200) at 25 °C in buffer C (composition not given; protein stored in 25 mM Hepes pH 7.5, 150 mM NaCl, 5 mM b-ME); 20 uM protein in cell, 200 uM DNA in syringe, one-site model
- Particulars: protein: recombinant; tags: N-terminal His6 removed by TEV; blunt
Please note pKd is a logarithmic value: minus log10 of concentration in mol/L. Answer with that number alone.

| Binder | Reported Measurement |
| --- | --- |
| P6CON (dsDNA) DNA 1: AAATTTTCACGCTTGAGTTCACAGCT DNA 2: AGCTGTGAACTCAAGCGTGAAAATTT | 6.03 |

Now take the following binder into account.
q: Need pKd of CD19 A-ins (dsDNA) DNA 1: GAATGGGGCACTGAGGCGTGACCACCGC DNA 2: GCGGTGGTCACGCCTCAGTGCCCCATTC , thanks.
a: 6.02
